- assayRemarks: gradient 5% acetonitrile 3 min, to 50% in 2 min, to 85% in 15 min, held 3 min, 100 µL/min
- recordedConditions: column: Zorbax Extend-C18 2.1 x 50 mm; eluents: water / acetonitrile, 0.1% formic acid
Threshold 700 s: RP-LC retention time strictly smaller gives criterion met, otherwise criterion not met.

>>> group("CCC(C)(C)C(=O)NC1CCN(C2=NS(=O)(=O)C(c3cccc(Cl)c3)=C2C)CC1")
"criterion not met"
>>> group("COc1cccc(-n2c(N3CCCC(C(=O)Nc4ccc(F)cc4)C3)nc3ccsc3c2=O)c1 (configuration not stated)")
"criterion not met"
>>> group("NC(=O)C1CCN(C(=O)CN2CCN(c3ccccc3)CC2)CC1")
"criterion met"
>>> group("CCc1nc(-c2ccc(C(=O)N3CCN(c4ncccn4)CC3)cc2)cs1")
"criterion not met"
>>> group("Brc1ccc(OCc2nnc3sc(CCc4ccccc4)nn23)cc1")
"criterion not met"

Now examine the next entry.
Task: Take the compound O=C(C1CCCCC1)N1CCCC(c2n[nH]c(C3CC3)n2)C1 (configuration not stated) and say whether its RP-LC retention time is less than 700 s.
Output: criterion met
